biological target: cloned human dopamine D3 receptors (Homo sapiens, UniProt P35462); construct: expressed in transfected cells; membrane homogenate; assay: [N-Methyl-3H]Spiroperidol binding to cloned human dopamine D3 receptors (Protocol 1); settings: read-out: D3K1
Sequence (P35462 whole entry): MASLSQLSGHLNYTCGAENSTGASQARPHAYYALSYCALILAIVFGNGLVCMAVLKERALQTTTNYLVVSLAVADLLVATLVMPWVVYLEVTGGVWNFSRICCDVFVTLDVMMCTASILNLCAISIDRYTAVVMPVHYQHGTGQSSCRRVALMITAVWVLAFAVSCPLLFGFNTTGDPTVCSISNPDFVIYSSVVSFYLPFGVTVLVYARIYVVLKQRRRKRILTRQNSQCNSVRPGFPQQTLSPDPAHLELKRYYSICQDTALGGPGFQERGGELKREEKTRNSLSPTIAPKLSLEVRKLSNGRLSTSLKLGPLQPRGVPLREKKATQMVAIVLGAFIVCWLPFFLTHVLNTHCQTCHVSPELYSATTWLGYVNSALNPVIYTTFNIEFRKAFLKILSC
Could you mark each record Y if its Ki falls strictly under 10 nM, and N if it equals or exceeds it?

Illustrative cases are given below, each with its answer.
O=C(NCCCCCN1CCN(c2csc3cc(C(F)(F)F)ccc23)CC1)c1cccc2[nH]ccc12 [compound 826798] | Y
O=C(NCCCCN1CCN(c2csc3cc(C(F)(F)F)ccc23)CC1)c1ccc(C(F)(F)F)cc1 [compound 815555] | Y
O=C(NCCCCCN1CCN(c2csc3cc(C(F)(F)F)ccc23)CC1)c1cccc(C(F)(F)F)c1 [compound 826770] | N
O=C(NCCCCCN1CCN(c2csc3cc(C(F)(F)F)ccc23)CC1)c1cc2ccccc2s1 [compound 826773] | N
O=C(NCCCCN1CCN(c2c(Cl)sc3cc(C(F)(F)F)ccc23)CC1)c1ccc([N+](=O)[O-])cc1 [compound 815569] | N

Please indicate whether the reported Ki of O=C(NCCCCN1CCN(c2c(Cl)sc3cc(F)ccc23)CC1)c1ccc(Br)cc1 [compound 815063] is strictly below 10 nM.
Y

---

molecular target: cloned human dopamine D3 receptors (Homo sapiens, UniProt P35462); construct: expressed in transfected cells; membrane homogenate; test: [N-Methyl-3H]Spiroperidol binding to cloned human dopamine D3 receptors (Protocol 1); conditions: read-out: D3K1
quantityKind: Ki (nM)
Number only, in nM; omit the unit.

Below, each entry is followed by its recorded Ki result.
O=C(NCCCCN1CCN(c2c(Cl)sc3cc(F)ccc23)CC1)c1ccc(F)cc1F [compound 815053] | 5.8
O=C(NCCCCN1CCN(c2csc3cc(C(F)(F)F)ccc23)CC1)c1c(F)cccc1F [compound 815557] | 8.7
O=C(NCCCCCN1CCN(c2csc3cc(C(F)(F)F)ccc23)CC1)c1n[nH]c2ccccc12 [compound 826801] | 49.8

Now for a further molecule.
The value of Ki measured for the molecule O=C(NC/C=C/CN1CCN(c2csc3cc(C(F)(F)F)ccc23)CC1)c1cccc(Cl)c1 [compound 827718] turned out to be 150
